systemName: DNPI/VGLUT2 (Rattus norvegicus, UniProt Q9JI12)
Construct: To reconstruct the full open reading frame, the missing segment was amplified from rat brain cDNA by PCR; expressed in transfected cells; light membranes prepared from them
Sequence (Q9JI12 whole entry): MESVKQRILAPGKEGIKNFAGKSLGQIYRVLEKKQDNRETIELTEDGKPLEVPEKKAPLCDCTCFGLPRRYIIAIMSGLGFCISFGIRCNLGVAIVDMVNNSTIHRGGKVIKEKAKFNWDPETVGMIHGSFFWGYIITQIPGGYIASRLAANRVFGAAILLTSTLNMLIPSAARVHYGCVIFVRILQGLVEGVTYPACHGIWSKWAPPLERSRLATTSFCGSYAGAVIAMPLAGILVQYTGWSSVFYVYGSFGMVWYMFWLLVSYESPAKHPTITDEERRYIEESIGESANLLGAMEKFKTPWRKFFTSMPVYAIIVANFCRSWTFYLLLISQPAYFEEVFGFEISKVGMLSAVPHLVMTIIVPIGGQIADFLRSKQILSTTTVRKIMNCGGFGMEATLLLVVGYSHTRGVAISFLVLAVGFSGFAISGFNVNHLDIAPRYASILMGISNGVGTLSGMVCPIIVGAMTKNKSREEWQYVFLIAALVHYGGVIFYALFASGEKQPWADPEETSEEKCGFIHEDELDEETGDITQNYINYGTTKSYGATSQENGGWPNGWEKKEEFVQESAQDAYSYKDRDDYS
protocolText: 3H-L-glutamate uptake by membranes from PC12 cells expressing DNPI/VGLUT2
Assay type: biochemical
settings: 10 mM, uptake at 5 minutes
valueType: inhibition of DNPI-mediated 3H-L-glutamate uptake

INSERT INTO measurements (compound, reportedvalue) VALUES
  ('NCC(=O)O [glycine]', 'not'),
  ('NCCCC(=O)O [GABA, γ-aminobutyric acid]', 'not'),
  ('N[C@H](CC(=O)O)C(=O)O [D-aspartate]', 'not');

Source listed as patent US6818391B2.
